Study system: Muscarinic acetylcholine receptor M1 (Rattus norvegicus)
Sequence (P08482 whole entry): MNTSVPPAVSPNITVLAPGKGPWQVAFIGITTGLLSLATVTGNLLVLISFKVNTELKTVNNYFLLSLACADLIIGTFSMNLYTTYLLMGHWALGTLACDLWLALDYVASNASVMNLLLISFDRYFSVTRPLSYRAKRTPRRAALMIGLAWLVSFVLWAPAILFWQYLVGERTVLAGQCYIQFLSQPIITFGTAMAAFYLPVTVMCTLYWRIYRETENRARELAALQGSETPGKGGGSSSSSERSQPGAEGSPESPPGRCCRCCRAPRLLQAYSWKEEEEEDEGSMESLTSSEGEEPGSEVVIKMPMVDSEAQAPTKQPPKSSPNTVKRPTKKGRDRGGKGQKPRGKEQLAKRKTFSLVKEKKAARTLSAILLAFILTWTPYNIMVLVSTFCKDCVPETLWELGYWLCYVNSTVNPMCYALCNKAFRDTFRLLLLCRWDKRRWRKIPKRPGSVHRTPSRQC
Method summary: Activity at rat M1 receptor
pEC50: −log10 of the molar value.
Recorded endpoint: pEC50

Kindly note: Muscarinic acetylcholine receptor M1 (Rattus norvegicus), Cc1nnc2sc(C(=O)NCc3ccc(-c4cccnc4F)cc3)c(N)c2c1C , pEC50 value reported: < 4.52

* * *

Method summary: Volume of distribution at steady state in dog at 3 mg/kg, iv or po
Format: ADME, organism-based, Canis lupus familiaris
Conditions used: in vivo, read-out: Vdss
Recorded endpoint: Vd
# include the unit after the value

For Cc1nnc2sc(C(=O)NCc3ccc(-c4cccnc4F)cc3)c(N)c2c1C.Cl the compound record lists Vd as 0.7 L/kg

* * *

Study system: UniProt P20309
Sequence (P20309 whole entry): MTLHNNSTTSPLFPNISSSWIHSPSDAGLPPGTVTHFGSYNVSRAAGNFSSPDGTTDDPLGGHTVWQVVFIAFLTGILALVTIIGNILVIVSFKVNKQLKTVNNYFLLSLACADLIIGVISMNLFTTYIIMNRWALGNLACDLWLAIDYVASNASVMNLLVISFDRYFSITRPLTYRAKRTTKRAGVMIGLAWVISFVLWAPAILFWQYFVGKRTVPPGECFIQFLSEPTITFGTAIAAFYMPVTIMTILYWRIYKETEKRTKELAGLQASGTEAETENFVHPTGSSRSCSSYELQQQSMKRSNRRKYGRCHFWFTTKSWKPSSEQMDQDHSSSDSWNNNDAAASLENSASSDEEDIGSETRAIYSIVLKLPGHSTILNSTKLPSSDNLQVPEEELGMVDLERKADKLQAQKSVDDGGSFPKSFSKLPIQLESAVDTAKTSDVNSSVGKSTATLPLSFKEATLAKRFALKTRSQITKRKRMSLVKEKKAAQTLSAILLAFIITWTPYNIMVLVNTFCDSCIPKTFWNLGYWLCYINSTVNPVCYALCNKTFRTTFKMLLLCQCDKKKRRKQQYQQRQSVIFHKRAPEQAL
Method summary: Activity at human M3 receptor
Recorded endpoint: EC50

Form field EC50, entry Cc1nnc2sc(C(=O)NCc3ccc(-c4cccnc4F)cc3)c(N)c2c1C : > 30 µM

* * *

Study system: UniProtKB P11712
Sequence (P11712 whole entry): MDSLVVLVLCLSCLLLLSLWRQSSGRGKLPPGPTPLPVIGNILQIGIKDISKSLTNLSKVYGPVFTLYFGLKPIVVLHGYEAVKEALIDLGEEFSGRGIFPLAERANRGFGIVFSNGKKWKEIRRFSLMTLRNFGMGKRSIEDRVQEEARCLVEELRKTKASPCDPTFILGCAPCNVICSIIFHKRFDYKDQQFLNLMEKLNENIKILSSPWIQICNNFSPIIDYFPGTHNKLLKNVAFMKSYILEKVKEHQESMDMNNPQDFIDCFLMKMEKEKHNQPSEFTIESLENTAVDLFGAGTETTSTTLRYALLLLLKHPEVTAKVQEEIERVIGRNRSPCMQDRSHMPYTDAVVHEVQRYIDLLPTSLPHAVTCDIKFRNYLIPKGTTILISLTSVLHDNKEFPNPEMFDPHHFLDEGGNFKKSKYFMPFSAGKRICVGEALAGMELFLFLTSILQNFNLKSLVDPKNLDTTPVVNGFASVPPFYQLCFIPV
Method summary: Inhibition of CYP2C9 (unknown origin)
Format: ADME
Recorded endpoint: pIC50
Formally, pIC50 is defined as -log10 of the concentration c, with c in mol/L.

// sample Cc1nnc2sc(C(=O)NCc3ccc(-c4ccnc(F)c4)cc3)c(N)c2c1C , its pIC50 was 4.60

* * *

Study system: Muscarinic acetylcholine receptor M4 (Homo sapiens)
Sequence (P08173 whole entry): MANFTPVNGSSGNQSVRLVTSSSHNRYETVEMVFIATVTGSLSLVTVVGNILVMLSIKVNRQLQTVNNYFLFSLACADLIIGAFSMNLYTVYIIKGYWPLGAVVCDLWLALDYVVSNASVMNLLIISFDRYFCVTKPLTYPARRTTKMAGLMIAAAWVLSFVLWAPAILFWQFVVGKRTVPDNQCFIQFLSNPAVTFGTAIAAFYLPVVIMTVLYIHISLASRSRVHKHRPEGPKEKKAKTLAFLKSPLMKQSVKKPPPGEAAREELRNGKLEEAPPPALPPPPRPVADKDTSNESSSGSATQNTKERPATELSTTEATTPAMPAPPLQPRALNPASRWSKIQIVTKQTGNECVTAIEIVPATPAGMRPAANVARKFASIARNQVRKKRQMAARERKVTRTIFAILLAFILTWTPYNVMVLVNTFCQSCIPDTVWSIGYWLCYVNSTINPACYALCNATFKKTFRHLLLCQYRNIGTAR
Method summary: Positive allosteric modulation of human M4 receptor expressed in CHO cells coexpressing Gqi5 assessed as increase in acetylcholine-induced calcium mobilization
Type: functional, cell-based
Conditions used: read-out: pEC50 (converted)
Rule: EC50 below 200 nM gives true. Equal to or above 200 nM gives false.

Structure as smiles: Cc1nnc2sc(C(=O)NCc3ccc(-c4ccccc4)cc3)c(N)c2c1C
Answer label: false

Challenge: Here's an entry: Cc1nnc2sc(C(=O)NCc3ccc(Br)cc3)c(N)c2c1C . Is its EC50 below 200 nM?
Response given: true

Challenge: Does this compound meet the criterion EC50 < 200 nM? Cc1nnc2sc(C(=O)NCc3cccc(Br)c3)c(N)c2c1C
Response given: true

Challenge: Would you kindly verify if EC50 of Cc1nnc2sc(C(=O)NCc3ccc(-c4ccncc4F)cc3)c(N)c2c1C is strictly less than 200 nM?
Response given: false

Challenge: Confirm or reject: EC50 of Cc1nnc2sc(C(=O)NCc3ccc(-c4ccccn4)cc3)c(N)c2c1C lies strictly below 200 nM
Response given: false

Challenge: Quick check: does Cc1ncc(-c2ccc(CNC(=O)c3sc4nnc(C)c(C)c4c3N)cc2)cn1 have EC50 under 200 nM?
Response given: false
